The reported measurements were obtained from PubChem BioAssay.

Molecular target: Integrin beta-1 (Homo sapiens) + Integrin alpha-4 (Homo sapiens) (UniProt P13612+P05556)
Sequence (P05556 whole entry, looked up): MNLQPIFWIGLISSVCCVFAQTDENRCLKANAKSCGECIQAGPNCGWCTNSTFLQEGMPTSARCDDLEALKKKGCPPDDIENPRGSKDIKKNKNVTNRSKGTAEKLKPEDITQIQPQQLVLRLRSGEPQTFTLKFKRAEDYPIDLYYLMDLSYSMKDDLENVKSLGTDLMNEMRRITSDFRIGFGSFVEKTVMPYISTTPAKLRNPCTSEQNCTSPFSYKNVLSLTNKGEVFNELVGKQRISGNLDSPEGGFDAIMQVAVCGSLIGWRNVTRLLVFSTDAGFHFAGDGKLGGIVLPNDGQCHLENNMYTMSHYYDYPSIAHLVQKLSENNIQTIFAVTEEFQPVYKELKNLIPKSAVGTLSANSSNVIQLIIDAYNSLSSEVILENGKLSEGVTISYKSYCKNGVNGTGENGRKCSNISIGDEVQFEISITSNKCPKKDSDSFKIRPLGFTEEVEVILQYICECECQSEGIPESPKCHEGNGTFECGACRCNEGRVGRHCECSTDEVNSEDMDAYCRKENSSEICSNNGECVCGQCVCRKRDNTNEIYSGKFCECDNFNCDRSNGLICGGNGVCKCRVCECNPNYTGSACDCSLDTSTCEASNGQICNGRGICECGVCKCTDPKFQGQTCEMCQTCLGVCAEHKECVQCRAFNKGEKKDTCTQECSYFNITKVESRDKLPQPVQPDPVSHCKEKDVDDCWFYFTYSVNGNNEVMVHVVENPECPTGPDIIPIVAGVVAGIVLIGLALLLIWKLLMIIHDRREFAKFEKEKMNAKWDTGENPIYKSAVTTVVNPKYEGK
Sequence (P13612 whole entry, looked up): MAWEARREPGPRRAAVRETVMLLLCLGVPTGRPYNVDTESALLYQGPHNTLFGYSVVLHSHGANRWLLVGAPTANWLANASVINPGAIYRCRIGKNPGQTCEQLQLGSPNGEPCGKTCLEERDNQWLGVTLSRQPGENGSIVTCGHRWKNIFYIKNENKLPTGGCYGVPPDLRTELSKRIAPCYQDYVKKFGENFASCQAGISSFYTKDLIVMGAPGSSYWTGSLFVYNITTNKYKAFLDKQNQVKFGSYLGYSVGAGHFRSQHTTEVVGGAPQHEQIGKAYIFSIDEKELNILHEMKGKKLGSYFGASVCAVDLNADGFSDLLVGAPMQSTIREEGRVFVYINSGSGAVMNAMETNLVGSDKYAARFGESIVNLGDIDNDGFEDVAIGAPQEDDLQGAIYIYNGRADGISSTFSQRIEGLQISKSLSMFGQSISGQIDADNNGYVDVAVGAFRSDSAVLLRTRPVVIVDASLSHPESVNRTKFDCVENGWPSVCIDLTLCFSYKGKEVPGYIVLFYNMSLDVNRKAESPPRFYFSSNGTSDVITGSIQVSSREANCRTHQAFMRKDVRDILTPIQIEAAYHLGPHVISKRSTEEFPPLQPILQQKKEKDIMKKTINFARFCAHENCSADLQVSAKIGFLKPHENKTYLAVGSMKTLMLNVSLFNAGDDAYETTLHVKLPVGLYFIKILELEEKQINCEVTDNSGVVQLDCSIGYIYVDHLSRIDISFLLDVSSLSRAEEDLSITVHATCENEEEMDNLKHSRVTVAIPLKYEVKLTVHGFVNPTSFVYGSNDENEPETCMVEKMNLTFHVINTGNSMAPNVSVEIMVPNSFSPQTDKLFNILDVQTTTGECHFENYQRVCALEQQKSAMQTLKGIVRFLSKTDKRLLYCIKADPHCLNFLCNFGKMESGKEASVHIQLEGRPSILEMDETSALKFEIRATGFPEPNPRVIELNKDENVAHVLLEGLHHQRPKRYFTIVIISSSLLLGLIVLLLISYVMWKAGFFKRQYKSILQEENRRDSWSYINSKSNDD
Test: alpha4beta1 integrin LIBS antibody binding reduction – U937 cells, HUTS-21 mAb, flow cytometry, validation set, VLA-4 allosteric modulator project, pilot screen (AID 2674);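 also: antibody binding induced by the VLA-4 ligand LDV present at three times its Kd; 0% = LDV ligand with antibody and no compound and 100% = antibody without LDV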
Conditions: HUTS-21 LIBS mAb binding, at 6.7 µM, hits give high values, binding induced by LDV ligand
observation.type: inhibition (%)
Numbers only, in %.

Answered examples (3):
compound=Fc1ccc(-c2cc(-c3ccccc3)nc(-n3cccn3)n2)cc1 unit_of_measurement=% value_measured=6.85
compound=CC(=O)c1cccc2c(O)c(C3=Nc4ccccc4C3=O)[nH]c12 unit_of_measurement=% value_measured=-29.4
compound="Cc1ccc(S(=O)(=O)NC(C(=O)Oc2cc3oc(=O)cc(C)c3cc2Cl)C(C)C)cc1 (stereo not given)" unit_of_measurement=% value_measured=3.99

Would you be so kind as to report inhibition for each listed record?
1. O=C(Nc1ccc(Cl)cn1)Nc1ccccc1Cl
2. O=C(O)Cc1ccc(O)c(F)c1
3. CCOc1cc(C=O)ccc1OCCSc1ccc(C)cc1
4. COc1ccc(C2=NOC(COc3ccc4c(C)cc(=O)oc4c3)C2)c(OC)c1 (stereo not given)
5. COc1cccc(=O)c2c(C)n(CC(=O)c3ccccc3)c(C)c12
6. Cc1ccc(C)c(OCCCC(C)(C)C(=O)O)c1
7. COc1ccc(C2OC(=O)Cc3cc(OC)c(OC)cc32)cc1 (stereo not given)
8. CC(=O)NC1C(OCc2ccccc2)OC(COC(C)=O)C(OC(C)=O)C1OC(C)=O (stereo not given)

1: -3.77; 2: -9.06; 3: 9.13; 4: -11.8; 5: -72.7; 6: -0.45; 7: -6.15; 8: -44

Quick request: inhibition for each listed item, please.
1. Cc1c(OCC(F)(F)F)ccnc1CS(=O)c1nc2ccccc2[nH]1 (stereo not given)
2. CN(C)CCCN1c2ccccc2CCc2ccccc21
3. Cc1cccc(NC(=O)c2cc3ccccc3o2)c1
4. CN(C)C(=O)CCCCCCCCC(=O)N(C)C
5. O=C(CN1CC[n+]2c(-c3cccs3)csc21)c1ccc(Br)cc1
6. COc1ccc(C2C3CCCCC3(O)CCN2C(=O)c2cccs2)cc1 (stereo not given)

-64.1
12
5.49
7.43
1.59
-0.27

I'm hoping you can list inhibition for every compound here, please.
1. CCN(CC)CCOC(=O)C(c1ccccc1)c1ccccc1
2. N#C/C(=C/c1ccccc1)C(=O)NCc1ccccc1
3. Cc1ccc(Nc2ncccc2C(=O)O)cc1C
4. COc1ccc(C(=O)NCCC2=CCCCC2)cc1[N+](=O)[O-]
5. CC(C)c1ccc(OCc2ccc(C(=O)O)o2)cc1

1: -4.6; 2: 7.76; 3: 8.4; 4: 12.3; 5: 11

---

Experiment: hit retest on RPL19A-GFP reporter strain – cell-based, S. cerevisiae, flow cytometry, cherry picks, mother/daughter gates, confirmation (AID 2270)
Details: 3 h, at 10 µM, hits give low values, 100 = same GFP as DMSO wells
Hi there, I'd appreciate the recorded GFP response vs DMSO for every entry that follows.
Answers are plain numbers, in %.

Solved entries (count: 3):
compound=COc1cc(/C=C/C(=O)CC(=O)/C=C/c2ccc(O)c(OC)c2)ccc1O value_measured=105
compound=COc1cccc(/C=C/C(=O)c2c(O)cc(C)oc2=O)c1O value_measured=101
compound="CS(=O)(=O)N1N=C(c2ccccc2)CC1c1ccc2c(c1)OCO2 (stereo unspecified)" value_measured=136

Would you mind listing GFP response vs DMSO for each of the following compounds?
1. C[C@]12CCC(=O)C=C1CC[C@@H]1[C@@H]2[C@@H](O)C[C@@]2(C)[C@H]1CC[C@]2(O)C(=O)CO
2. N=c1nc(N2CCCCC2)cc(N)n1O
3. CCOc1nnc(C)c2c(C)n(-c3cccc(OC)c3)nc12

1. 104
2. 97.4
3. 104
